experimental-readout: log10(Ki) (log10 of the value in nM)
Please interpret these as log10 of Ki where Ki is in nM.

Challenge: So what log10(Ki) did N=C(N)SCCOc1oc(=O)c2cc(N)ccc2c1Cl get with human uPA (Homo sapiens, UniProt P00749)?
Response given: 1.30

Challenge: So what log10(Ki) did O=c1oc(OCCCBr)cc2ccc([N+](=O)[O-])cc12 [Compound 10b] get with human uPA (Homo sapiens, UniProt P00749)?
Response given: 3.63

Challenge: So what log10(Ki) did Br.N=C(N)SCCCOc1oc(=O)c2cc(N)ccc2c1Cl get with human uPA (Homo sapiens, UniProt P00749)?
Response given: 1.58

Challenge: So what log10(Ki) did Br.N=C(N)SCCOc1oc(=O)c2ccccc2c1Cl get with human uPA (Homo sapiens, UniProt P00749)?
Response given: 1.52

Challenge: So what log10(Ki) did Br.N=C(N)SCCOc1oc(=O)c2cc(NC(=O)c3ccccc3)ccc2c1Cl get with human uPA (Homo sapiens, UniProt P00749)?
Response given: 1.92

Challenge: So what log10(Ki) did O=c1oc(OCCCCBr)c(Cl)c2ccccc12 get with human uPA (Homo sapiens, UniProt P00749)?
Response given: 4.26

Challenge: So what log10(Ki) did O=c1oc(OCCBr)c(Cl)c2ccccc12 get with human uPA (Homo sapiens, UniProt P00749)?
Response given: 4.15

Challenge: So what log10(Ki) did O=c1oc(OCCBr)cc2ccc([N+](=O)[O-])cc12 [Compound 10a] get with human uPA (Homo sapiens, UniProt P00749)?
Response given: 3.62

Challenge: So what log10(Ki) did O=C(c1c(OCCCBr)oc(=O)c2ccccc12)C(F)(F)F [Compound 10c] get with human uPA (Homo sapiens, UniProt P00749)?
Response given: 4.15

Challenge: So what log10(Ki) did Br.N=C(N)SCCCOc1oc(=O)c2cc(NC(=O)c3ccccc3)ccc2c1Cl get with human uPA (Homo sapiens, UniProt P00749)?
Response given: 1.00

Challenge: So what log10(Ki) did O=c1oc(OCCCBr)c(Cl)c2ccc([N+](=O)[O-])cc12 get with human uPA (Homo sapiens, UniProt P00749)?
Response given: 3.38

---

experimental-readout: melting point

Challenge: Given Br.N=C(N)SCCCOc1oc(=O)c2cc(N)ccc2c1Cl , state its recorded melting point.
Response given: 173 °C

Challenge: Given Br.N=C(N)SCCOc1oc(=O)c2ccccc2c1Cl , state its recorded melting point.
Response given: 168 to 170 °C

Challenge: Given Nc1ccc2cc(OCCBr)oc(=O)c2c1 , state its recorded melting point.
Response given: > 280 °C

Challenge: Given O=C(c1c(OCCCBr)oc(=O)c2ccccc12)C(F)(F)F [Compound 10c] , state its recorded melting point.
Response given: 116 to 117 °C

Challenge: Given Br.N=C(N)SCCCOc1oc(=O)c2ccccc2c1Cl , state its recorded melting point.
Response given: 159 to 163 °C

Challenge: Given O=c1oc(OCCCBr)c(Cl)c2ccc([N+](=O)[O-])cc12 , state its recorded melting point.
Response given: 131 to 134 °C
